experiment: Half life in rat at 5 mg/kg, po; type: ADME, organism-based; parameters: dose 5 mg/kg, route oral; settings: in vivo
outcome measure: half-life (h)
Only the number, expressed in h, is required.

Asked: What value of half-life has been recorded for this entry: COP(=O)(c1ccccc1)c1c(C(N)=O)[nH]c2ccc(Cl)cc12 (racemic)
Given back: 1.19

---

assay: Metabolic stability of the compound in monkey hepatocytes assessed as compound remaining after 4 hrs; type: ADME, cell-based, Macaca mulatta, Hepatocyte; conditions: rhesus monkey, read-out: Stability
outcome measure: remaining at 4 h (%)
Only the number, expressed in %, is required.

Asked: What value of remaining at 4 h has been recorded for this entry: COP(=O)(c1ccccc1)c1c(C(N)=O)[nH]c2ccc(Cl)cc12 (racemic)
Given back: 49

---

assay: Clearance in rat at 5 mg/kg, po; assay type: ADME, organism-based; design: dose 5 mg/kg, route oral; details: in vivo
outcome measure: CL/F (mL/min/kg)
Only the number, expressed in mL/min/kg, is required.

Asked: What value of CL/F has been recorded for this entry: COP(=O)(c1ccccc1)c1c(C(N)=O)[nH]c2ccc(Cl)cc12 (racemic)
Given back: 2.85

---

As shown below, each of these compounds has a reported pEC50 value.
assay: Antiviral activity against wild type HIV1 BH10 infected human MT4 cells assessed as inhibition of virus-induced cytopathogenicity; format: functional, cell-based, Human immunodeficiency virus type 1 BH10; conditions: Human immunodeficiency virus 1, MT4
pEC50 is defined as minus the log10 of a concentration measured in mol/L.

Illustrative cases are given below, each with its answer.
COP(=O)(c1ccccc1)c1c(C(N)=O)[nH]c2ccc(Cl)cc12 (racemic) :: 9.15
CO[P@@](=O)(c1ccccc1)c1c(C(N)=O)[nH]c2ccc(Cl)cc12 :: 6.74
COP(=S)(c1ccccc1)c1c(C(N)=O)[nH]c2ccc(Cl)cc12 (stereo not given) :: 9.40
CN(C)P(=O)(c1ccccc1)c1c(C(N)=O)[nH]c2ccc(Cl)cc12 (stereo not given) :: 7.86
CO[P@](=O)(c1ccccc1)c1c(C(N)=O)[nH]c2ccc(Cl)cc12 :: 10.00

Asked: What value of pEC50 has been recorded for this entry: NC(=O)c1[nH]c2ccc(Cl)cc2c1P(=O)(OCc1ccccc1)c1ccccc1 (stereo not given)
Given back: 7.47

Asked: What value of pEC50 has been recorded for this entry: CCOP(=O)(c1ccccc1)c1c(C(N)=O)[nH]c2ccc(Cl)cc12 (stereo not given)
Given back: 8.92

Asked: What value of pEC50 has been recorded for this entry: CP(=O)(c1ccccc1)c1c(C(N)=O)[nH]c2ccc(Cl)cc12 (stereo not given)
Given back: 9.10
